Quick list: polymerase ribozyme fitness (log ratio) per entry.
B1: TPR t1 (parent)
chain: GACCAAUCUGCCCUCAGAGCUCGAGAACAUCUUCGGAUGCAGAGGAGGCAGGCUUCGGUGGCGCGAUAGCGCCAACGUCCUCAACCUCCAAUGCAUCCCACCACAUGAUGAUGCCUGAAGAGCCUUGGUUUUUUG

Variants of: B1
Test: polymerase ribozyme fitness, log enrichment relative to wild type (log ratio); higher = more active; in vitro selection for triplet polymerase activity

In: Consider the variant shown here: G60A U78G A84U G93A C102A What is its recorded polymerase ribozyme fitness (log ratio)?
Out: -4.94

In: Consider the variant shown here: G44A C70U What is its recorded polymerase ribozyme fitness (log ratio)?
Out: -1.67

In: Consider the variant shown here: U9A C31U G44U G52U A111U What is its recorded polymerase ribozyme fitness (log ratio)?
Out: -5.37

In: Consider the variant shown here: C101A U131C What is its recorded polymerase ribozyme fitness (log ratio)?
Out: -0.88

Continuing:
In: Consider the variant shown here: A6U G52U C53G G128C What is its recorded polymerase ribozyme fitness (log ratio)?
Out: -3.38

In: Consider the variant shown here: G36A G107A C124A What is its recorded polymerase ribozyme fitness (log ratio)?
Out: -7.46

In: Consider the variant shown here: C73G A90G G113U A118C What is its recorded polymerase ribozyme fitness (log ratio)?
Out: -5.26
